The measured values listed here are drawn from patent US20250213705A1.

target: Recombinant Human PSMA/FOLH1 Protein (Homo sapiens (Human)); experiment: Inhibition assay (Amplex Red glutamic acid/glutamate oxidase, NAAG substrate); conditions: Target PSMA; average of N replicates; PSMA 5 nM, NAAG 40 μM
Sequence (Q04609 whole entry): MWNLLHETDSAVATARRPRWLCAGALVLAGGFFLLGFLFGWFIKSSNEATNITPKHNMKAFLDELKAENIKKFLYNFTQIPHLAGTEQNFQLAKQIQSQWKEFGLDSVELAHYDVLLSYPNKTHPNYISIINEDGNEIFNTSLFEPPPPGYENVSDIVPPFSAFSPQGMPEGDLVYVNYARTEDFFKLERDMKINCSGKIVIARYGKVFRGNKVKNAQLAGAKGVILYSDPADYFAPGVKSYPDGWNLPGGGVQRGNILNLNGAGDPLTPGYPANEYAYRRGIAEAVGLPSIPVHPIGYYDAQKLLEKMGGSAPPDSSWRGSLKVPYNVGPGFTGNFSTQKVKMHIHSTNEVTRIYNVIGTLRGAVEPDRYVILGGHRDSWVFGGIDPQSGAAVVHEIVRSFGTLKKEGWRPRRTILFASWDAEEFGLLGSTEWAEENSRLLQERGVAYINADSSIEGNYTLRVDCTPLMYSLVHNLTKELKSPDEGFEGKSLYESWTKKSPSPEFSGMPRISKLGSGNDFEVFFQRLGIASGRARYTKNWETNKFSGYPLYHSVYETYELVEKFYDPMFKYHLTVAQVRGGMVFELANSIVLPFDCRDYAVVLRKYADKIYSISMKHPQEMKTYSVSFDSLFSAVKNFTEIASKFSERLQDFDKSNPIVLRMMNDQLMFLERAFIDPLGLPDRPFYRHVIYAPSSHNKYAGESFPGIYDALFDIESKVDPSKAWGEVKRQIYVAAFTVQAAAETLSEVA
pIC50: −log10 of the molar value.
Entries and their pIC50 values follow.
measurement-kind: pIC50

[[record]]
structure_smiles_string = "CC(=O)NCCOCCOCCOCCC(=O)NC[C@H]1CC[C@H](C(=O)N[C@H](Cc2ccc(O)cc2)C(=O)NCCCC[C@H](NC(=O)N[C@@H](CCC(=O)O)C(=O)O)C(=O)O)CC1"
observed_value = 6.17

[[record]]
structure_smiles_string = "CC(=O)NCCOCCOCCOCCC(=O)N(CCCCOc1cc(C#N)cc(C#N)c1)CC(=O)N[C@@H](Cc1ccc2ccccc2c1)C(=O)NCCCC[C@H](NC(=O)N[C@@H](CCC(=O)O)C(=O)O)C(=O)O"
observed_value = 5.83

[[record]]
structure_smiles_string = "CC(=O)NCCOCCOCCOCCC(=O)NC[C@H]1CC[C@H](C(=O)N[C@@H](Cc2ccc3ccccc3c2)C(=O)NCCCC[C@H](NC(=O)N[C@@H](CCc2n[nH]c(=O)o2)C(=O)O)C(=O)O)CC1"
observed_value = 4.99

[[record]]
structure_smiles_string = "CC(=O)NCCOCCOCCOCCC(=O)N(CCCOc1ccc(F)cc1F)CC(=O)NC[C@H]1CC[C@H](C(=O)N[C@@H](Cc2ccc3ccccc3c2)C(=O)NCCCC[C@H](NC(=O)N[C@@H](CCC(=O)O)C(=O)O)C(=O)O)CC1"
observed_value = 7.30

[[record]]
structure_smiles_string = "CC(=O)NCCOCCOCCOCCC(=O)NC[C@H]1CC[C@H](C(=O)N[C@@H](Cc2cccc(C(=O)O)c2)C(=O)NCCCC[C@H](NC(=O)N[C@@H](CCC(=O)O)C(=O)O)C(=O)O)CC1"
observed_value = 7.67

[[record]]
structure_smiles_string = "CC(=O)NCCOCCOCCOCCC(=O)N1C[C@H](NC(=O)COc2cc(C#N)cc(C#N)c2)C[C@H]1C(=O)NCC(=O)N[C@@H](Cc1ccc2ccccc2c1)C(=O)NCCCC[C@H](NC(=O)N[C@@H](CCC(=O)O)C(=O)O)C(=O)O"
observed_value = 7.03

[[record]]
structure_smiles_string = "CC(=O)NCCOCCOCCOCCC(=O)N[C@@H](CCCOc1cc(C#N)cc(C#N)c1)C(=O)NCC(=O)N[C@@H](Cc1ccc2ccccc2c1)C(=O)NCCCC[C@H](NC(=O)N[C@@H](CCC(=O)O)C(=O)O)C(=O)O"
observed_value = 7.58

[[record]]
structure_smiles_string = "CC(=O)NCCOCCOCCOCCC(=O)NC[C@H]1CC[C@H](C(=O)N[C@@H](Cc2ccc(N)cc2)C(=O)NCCCC[C@H](NC(=O)N[C@@H](CCC(=O)O)C(=O)O)C(=O)O)CC1"
observed_value = 6.54

[[record]]
structure_smiles_string = "CC(=O)NCCOCCOCCOCCC(=O)NC[C@H]1CC[C@H](C(=O)N[C@@H](CCCC(=O)O)C(=O)NCCCC[C@H](NC(=O)N[C@@H](CCC(=O)O)C(=O)O)C(=O)O)CC1"
observed_value = 5.83

[[record]]
structure_smiles_string = "CC(=O)NCCOCCOCCOCCC(=O)N[C@@H](CCCOc1ccc(F)cc1F)C(=O)NC[C@H]1CC[C@H](C(=O)N[C@@H](Cc2ccc3ccccc3c2)C(=O)NCCCC[C@H](NC(=O)N[C@@H](CCC(=O)O)C(=O)O)C(=O)O)CC1"
observed_value = 6.81

[[record]]
structure_smiles_string = "CC(=O)NCCOCCOCCOCCC(=O)NC[C@H]1CC[C@H](C(=O)N[C@@H](Cc2ccc3ccccc3c2)C(=O)NCCCC[C@H](NC(=O)N[C@@H](Cc2ccc(C(=O)O)cc2)C(=O)O)C(=O)O)CC1"
observed_value = 3.58

[[record]]
structure_smiles_string = "CC(=O)NCCOCCOCCOCCC(=O)NC[C@H]1CC[C@H](C(=O)N[C@H](Cc2c[nH]cn2)C(=O)NCCCC[C@H](NC(=O)N[C@@H](CCC(=O)O)C(=O)O)C(=O)O)CC1"
observed_value = 5.65

[[record]]
structure_smiles_string = "CC(=O)NCCOCCOCCOCCC(=O)NC[C@H]1CC[C@H](C(=O)N[C@@H](Cc2ccccc2)C(=O)NCCCC[C@H](NC(=O)N[C@@H](CCC(=O)O)C(=O)O)C(=O)O)CC1"
observed_value = 7.03

[[record]]
structure_smiles_string = "CC(=O)NCCOCCOCCOCCC(=O)NC[C@H]1CC[C@H](C(=O)N[C@H](Cc2c[nH]c3ccccc23)C(=O)NCCCC[C@H](NC(=O)N[C@@H](CCC(=O)O)C(=O)O)C(=O)O)CC1"
observed_value = 7.09

[[record]]
structure_smiles_string = "CC(=O)NCCOCCOCCOCCC(=O)N[C@@H](Cc1ccncc1)C(=O)NCC(=O)N[C@@H](Cc1ccc2ccccc2c1)C(=O)NCCCC[C@H](NC(=O)N[C@@H](CCC(=O)O)C(=O)O)C(=O)O"
observed_value = 7.97

[[record]]
structure_smiles_string = "CC(=O)NCCOCCOCCOCCC(=O)NC[C@H]1CC[C@H](C(=O)N[C@@H](Cc2ccc3ccccc3c2)C(=O)NCCCC[C@H](NC(=O)N[C@@H](Cc2cccc(C(=O)O)c2)C(=O)O)C(=O)O)CC1"
observed_value = 3.22

[[record]]
structure_smiles_string = "CC(=O)NCCOCCOCCOCCC(=O)N[C@@H]1C[C@@H](C(=O)NCC(=O)N[C@@H](Cc2ccc3ccccc3c2)C(=O)NCCCC[C@H](NC(=O)N[C@@H](CCC(=O)O)C(=O)O)C(=O)O)N(C(=O)COc2cc(C#N)cc(C#N)c2)C1"
observed_value = 7.06

[[record]]
structure_smiles_string = "C=CC[C@H](NC(=O)CCOCCOCCOCCNC(C)=O)C(=O)NC[C@H]1CC[C@H](C(=O)N[C@@H](Cc2ccc3ccccc3c2)C(=O)NCCCC[C@H](NC(=O)N[C@@H](CCC(=O)O)C(=O)O)C(=O)O)CC1"
observed_value = 7.06

